# test_protocol: qHTS Assay for Lipid Storage Modulators (AID 1519)
# settings: Drosophila S3 cells, BODIPY lipid droplet/cell ratio, laser cytometry; measured here: lipid channel max response; cells loaded with oleic acid
Inconclusive results are not listed.
measure_name: max response (%)

- compound: "Cc1ccc(-c2cc(C(F)(F)F)nn2-c2ccc(S(N)(=O)=O)cc2)cc1"
  meas_value: 30
- compound: "CN1C(C(=O)Nc2ccccn2)=C(O)c2ccccc2S1(=O)=O"
  meas_value: -3.03
- compound: "CC(=O)OCC(CCn1cnc2cnc(N)nc21)COC(C)=O"
  meas_value: 23.5
- compound: "NC(=O)NO"
  meas_value: 26.4
- compound: "O=C(C1CCCCC1)N1CC(=O)N2CCc3ccccc3C2C1 (stereo unspecified)"
  meas_value: -16.6
- compound: "CN(Cc1cnc2nc(N)nc(N)c2n1)c1ccc(C(=O)N[C@@H](CCC(=O)O)C(=O)O)cc1"
  meas_value: -9.12
- compound: "CCOC(=O)c1ncn2c1CN(C)C(=O)c1cc(F)ccc1-2"
  meas_value: 21.2
- compound: "COc1ccccc1OCC(O)CN1CCN(CC(=O)Nc2c(C)cccc2C)CC1 (stereo unspecified)"
  meas_value: 24.1
- compound: "COc1cc2nc(N(C)CCCNC(=O)C3CCCO3)nc(N)c2cc1OC (stereo unspecified)"
  meas_value: 20.8
- compound: "COc1ccccc1N1CCN(CC(O)COc2cccc3ccccc23)CC1 (stereo unspecified)"
  meas_value: -14.9
- compound: "CC(COc1ccccc1)N(CCCl)Cc1ccccc1 (stereo unspecified)"
  meas_value: 23.2

====

# system_name: ATP-dependent 6-phosphofructokinase (Trypanosoma brucei brucei)
# test_protocol: qHTS Validation Assay to Find Inhibitors of T. brucei phosphofructokinase (AID 485368)
# settings: T. brucei PFK enzyme assay, qHTS 7-point titration; series mostly up to 57.5 µM
# Description: NIH Molecular Libraries Probe Production Network [MLPCN] NIH Chemical Genomics Center [NCGC] PI Name: Malcolm Walkinshaw, University of Edinburgh […] The goal of this screen is to find small-molecule inhibitors of T. brucei PFK using a biochemical assay that measures PFK activity as a function of ADP production. A luminescence-based assay for T. brucei PFK activity has been developed which uses luciferase to detect production of ADP. […]
Inconclusive results are not listed. The source made the active and inactive calls. Calls follow the shape of the dose curve; as a rule, active = well fitted inhibition curve with a large enough effect; inconclusive = small, poorly fitted or top-dose-only effect, or effect the other way; inactive = flat fitted curve, though single readings scatter.
Possible outcomes: active, inactive

- molecule: "COc1cc2nc(N3CCN(C(=O)C4COc5ccccc5O4)CC3)nc(N)c2cc1OC (stereo unspecified)"
  category: "inactive"
- molecule: "CN(Cc1cnc2nc(N)nc(N)c2n1)c1ccc(C(=O)N[C@@H](CCC(=O)O)C(=O)O)cc1"
  category: "active"
- molecule: "COc1cc2nc(N3CCN(C(=O)c4ccco4)CC3)nc(N)c2cc1OC"
  category: "inactive"
- molecule: "COc1nc(C)nc(Cl)c1NC1=NCCN1"
  category: "inactive"
- molecule: "CC(C)Cc1ccc(C(C)C(=O)O)cc1 (stereo unspecified)"
  category: "inactive"
- molecule: "NC(=O)NO"
  category: "inactive"
- molecule: "NC(=O)OCC(COC(N)=O)c1ccccc1"
  category: "inactive"
- molecule: "C[C@H]1c2cccc(O)c2C(O)=C2C(=O)[C@]3(O)C(O)=C(C(N)=O)C(=O)[C@@H](N(C)C)[C@@H]3[C@@H](O)[C@@H]21"
  category: "inactive"
- molecule: "CCC1(c2ccccc2)C(=O)NCNC1=O"
  category: "inactive"
- molecule: "Nc1nc2c(ncn2COC(CO)CO)c(=O)[nH]1"
  category: "inactive"
- molecule: "CC(C)C(=O)Nc1ccc([N+](=O)[O-])c(C(F)(F)F)c1"
  category: "inactive"
